Assay: Toxicity liver stage against HepG2, at 10uM
Type: cell-based
Design: test concentration 10 uM, cell line HepG2-A16-CD81EGFP
Conditions: human, HepG2-A16-CD81EGFP cells; read-out: INHIBITION
Measured cytotoxicity at 10 µM accompanies every entry in the list below.
Express it in %; write the number only.

// known answers, use as guide
1. COc1cc(C)nc(N2CCN(C(=O)c3cccc(C#N)c3)CC2)n1 :: -3.54
2. Cc1ccc(C(=O)N2CCn3cnc(COCC4CC4)c3C2)cn1 :: 4.03
3. c1cnnc(N2CCCC2CNc2nc3ccccc3o2)c1 (stereo unspecified) :: -2.96

Annotate the compound CC(C)Nc1ncnc2c1CCN(C(=O)Cc1cccs1)CC2 with its measured cytotoxicity at 10 µM.
-80.9

Annotate the compound CCN1CCn2c(C)cnc2C12CCN(C(=O)COC)CC2 with its measured cytotoxicity at 10 µM.
6.5

Annotate the compound CCOCC1CN(C(=O)c2ccnnc2)Cc2cnn(CC)c21 (stereo unspecified) with its measured cytotoxicity at 10 µM.
-77.8

###

Measured cytotoxicity at 10 µM accompanies every entry in the list below.
Test: Toxicity liver stage against HepG2, at 10uM
Type: cell-based
Design: test concentration 10 uM, cell line HepG2-A16-CD81EGFP
Conditions: human, HepG2-A16-CD81EGFP cells; read-out: INHIBITION
Express it in %; write the number only.

// known answers, use as guide
1. CC(C)N1CCCC2(CCN(Cc3nncn3C(C)C)C2)C1=O (centres undefined) :: -108
2. O=c1ccncn1Cc1csc(C2CC2)n1 :: -0.572
3. CC(C)N1C[C@H](O)C[C@H]1c1nc(-c2ccc(OC(F)(F)F)cc2)no1 :: -3.72
4. CNC(=O)C(NC(=O)CCc1cccc(OC2CCCC2)c1)C(C)C (centres undefined) :: 10.9
5. Cc1ccc(C(=O)NC2CCN(C)CC2)cc1N(C)S(C)(=O)=O :: -0.853

Annotate the molecule CC1CCC(N2CCC(NS(=O)(=O)CCOC(C)C)CC2)CC1 (centres undefined) with its measured cytotoxicity at 10 µM.
-0.45

Annotate the molecule CCN(CC)C1CCN(C(=O)c2cc3cc(C)cc(C)c3nc2C)CC1 with its measured cytotoxicity at 10 µM.
0.199

Annotate the molecule CC(C)(N)c1cn(C2CCN(C(=O)CCC3CCCCC3)CC2)nn1 with its measured cytotoxicity at 10 µM.
-6.53

Annotate the molecule Cc1nnc(NC(=O)NC(C)C(=O)NC2CCCC2)s1 (centres undefined) with its measured cytotoxicity at 10 µM.
-0.334

Annotate the molecule Cc1cc(C2CCC2)nc(NCCC23CCCN2CCC3)n1 with its measured cytotoxicity at 10 µM.
0.414

Annotate the molecule Cc1cc(C)nc(Nc2cccc(C3CCCN(C(C)C)C3)n2)n1 (centres undefined) with its measured cytotoxicity at 10 µM.
-19.4

Annotate the molecule CN(C)CC1(O)CCCN(c2ccnc3c(C(F)(F)F)cccc23)C1 (centres undefined) with its measured cytotoxicity at 10 µM.
-4.55

Annotate the molecule O=C(Nc1nc2c(s1)CN(S(=O)(=O)C1CC1)CC2)Nc1ccccc1F with its measured cytotoxicity at 10 µM.
-1.34

Annotate the molecule CN(C)C(=O)Cn1cnc2c(Br)cccc2c1=O with its measured cytotoxicity at 10 µM.
-8.97

Annotate the molecule COCCc1noc(CNC2CCc3nc(C(C)C)nn3C2)n1 (centres undefined) with its measured cytotoxicity at 10 µM.
4.28

###

Experiment: Toxicity liver stage against HepG2, at 10uM
Assay type: cell-based
Design: test concentration 10 uM, cell line HepG2-A16-CD81EGFP
Conditions: human, HepG2-A16-CD81EGFP cells; read-out: INHIBITION
MEASUREMENT LABEL: cytotoxicity at 10 µM (%)
Express it in %; write the number only.

// known answers, use as guide
1. Cc1nc(CN2CC(CO)Oc3ccccc32)sc1C (centres undefined) :: 0.918
2. COc1ccc(CC(=O)N2CCc3nnc(N(C)C)cc3C2)cc1F :: -9.5
3. Cc1cc(CNC(=O)C2CC(=O)N(CCN(C)C)C2)cc(C)n1 (centres undefined) :: 3.05

Annotate the molecule CCC(CO)N(Cc1cccc(-n2cccn2)c1)Cc1cccs1 (centres undefined) with its measured cytotoxicity at 10 µM.
7.63

Annotate the molecule Cc1cc(C)c(S(=O)(=O)Nc2c(C)nc(N3CCCC3)nc2C)cc1C with its measured cytotoxicity at 10 µM.
3.62

Annotate the molecule CN(C)C(=O)C1CN(c2ccncn2)CCN(C2CCOCC2)C1 (centres undefined) with its measured cytotoxicity at 10 µM.
-0.621

Annotate the molecule O=C(c1ccc(O)nc1)N1Cc2ccccc2OC2(CCOCC2)C1 with its measured cytotoxicity at 10 µM.
-44.2

Annotate the molecule Cc1ncc2c(n1)CCCC2NC(=O)c1ccc(Cn2cccn2)cc1 (centres undefined) with its measured cytotoxicity at 10 µM.
-7.55

Annotate the molecule CC(C(=O)N(C)Cc1noc(C2CCC2)n1)N1CCc2ccccc2C1 (centres undefined) with its measured cytotoxicity at 10 µM.
-79.1

Annotate the molecule CCCNC(=O)NCc1ccccc1NS(=O)(=O)c1ccccc1 with its measured cytotoxicity at 10 µM.
10.3

###

Experiment: Toxicity liver stage against HepG2, at 10uM
Assay type: cell-based
Set-up: test concentration 10 uM, cell line HepG2-A16-CD81EGFP
Conditions: human, HepG2-A16-CD81EGFP cells; read-out: INHIBITION
MEASUREMENT LABEL: cytotoxicity at 10 µM (%)
Express it in %; write the number only.

// known answers, use as guide
1. COCc1cccc(C(=O)N2CCCC2)c1 :: -1.7
2. NC(=O)CN1CCOCC(Cc2ccccc2)C1 (configuration not stated) :: 0.579

Annotate the compound CN(C)C(=O)CN1CCC2(COCc3cnc(N4CCOCC4)nc32)C1 (configuration not stated) with its measured cytotoxicity at 10 µM.
-70.5

Annotate the compound Cc1ccc2nccc(C(=O)N3CCOC(CCN(C)C)C3)c2c1 (configuration not stated) with its measured cytotoxicity at 10 µM.
10.8

Annotate the compound CC(C)CN1CCO[C@H]2CCN(c3cnccn3)CC[C@@H]21 with its measured cytotoxicity at 10 µM.
2.31

Annotate the compound COCC(C)NC(=O)CCSc1ccc(F)cc1 (configuration not stated) with its measured cytotoxicity at 10 µM.
1.28

Annotate the compound Cc1ccc(CN2CC[C@@H](N3CCOCC3)[C@@H]2Cc2cccnc2)o1 with its measured cytotoxicity at 10 µM.
9.55

Annotate the compound c1ccc(CCN2CCOC3(CCc4ccccc43)C2)nc1 (configuration not stated) with its measured cytotoxicity at 10 µM.
-4

Annotate the compound CCc1nc(C)sc1CN1CC[C@@](O)(C2CCOCC2)[C@H](C)C1 with its measured cytotoxicity at 10 µM.
1.71

Annotate the compound CN(C(=O)Cn1nc(-c2cccs2)ccc1=O)C1CCS(=O)(=O)C1 (configuration not stated) with its measured cytotoxicity at 10 µM.
7.36

Annotate the compound CC(C)(C)NC(=O)C1CSCN1S(=O)(=O)c1ccccc1S(C)(=O)=O (configuration not stated) with its measured cytotoxicity at 10 µM.
-4.04

Annotate the compound Cc1noc(OCCOc2cccc(C#N)c2)n1 with its measured cytotoxicity at 10 µM.
0.63

###

Test: Toxicity liver stage against HepG2, at 10uM
Assay type: cell-based
Parameters: test concentration 10 uM, cell line HepG2-A16-CD81EGFP
Conditions: human, HepG2-A16-CD81EGFP cells; read-out: INHIBITION
Measured cytotoxicity at 10 µM accompanies every entry in the list below.
Express it in %; write the number only.

// known answers, use as guide
1) c1ccc(OCC2C[C@@H]3[C@@H](C2)OCCN3Cc2ccoc2)nc1 (stereo partly specified) :: -0.514
2) O=C1C[C@H]2[C@@H](CCN2C(=O)c2ccoc2)N1CCN1CCOCC1 :: -5.26
3) N#Cc1cccc(CS(=O)(=O)NCCC(O)c2ccccc2)c1 (stereo unspecified) :: 0.692
4) Cn1cc(-c2nc(CN3CCOC(Cn4cccn4)C3)cs2)cn1 (stereo unspecified) :: -4.04
5) CCc1cnc(C)nc1N1CCN(Cc2ccc(-c3cc[nH]n3)o2)CC1 :: -0.898

Annotate the compound CC(=O)N1CCC(NC(=O)CN2CCCc3c(F)ccc(C)c32)CC1 with its measured cytotoxicity at 10 µM.
-7.68

###

Measured cytotoxicity at 10 µM accompanies every entry in the list below.
Experiment: Toxicity liver stage against HepG2, at 10uM
Format: cell-based
Parameters: test concentration 10 uM, cell line HepG2-A16-CD81EGFP
Details: human, HepG2-A16-CD81EGFP cells; read-out: INHIBITION
Express it in %; write the number only.

1) Cc1nnc(NC(=O)CN2CCCC(Cn3cncn3)C2)s1 (centres undefined) :: 1.71

Annotate the molecule CCCc1nnc(N(C)CC2CCN(CC(C)C)C2)o1 (centres undefined) with its measured cytotoxicity at 10 µM.
-1.41

Annotate the molecule COc1c(C)cnc(CN2CCCCC2CCN2CCOCC2)c1C (centres undefined) with its measured cytotoxicity at 10 µM.
-4.27

Annotate the molecule NC(=O)c1cccc(CC2CCN(C(=O)CCCN3CCOCC3)C2)c1 (centres undefined) with its measured cytotoxicity at 10 µM.
-11.3

Annotate the molecule Cc1cccc(-c2noc(CN3CCCC3Cn3cncn3)n2)c1 (centres undefined) with its measured cytotoxicity at 10 µM.
0.983

Annotate the molecule CN(Cc1nc(-c2cccnc2)no1)C(=O)c1cccn1C with its measured cytotoxicity at 10 µM.
-2.85
